Molecular target: T1, human plexin A1 protein sema domain (from glutamic acid at position 28 to serine at position 514) tagged at … (human, UniProt Q9UIW2 28-514)
T1 construct: also called human plexin A1 sema domain
T1 sequence: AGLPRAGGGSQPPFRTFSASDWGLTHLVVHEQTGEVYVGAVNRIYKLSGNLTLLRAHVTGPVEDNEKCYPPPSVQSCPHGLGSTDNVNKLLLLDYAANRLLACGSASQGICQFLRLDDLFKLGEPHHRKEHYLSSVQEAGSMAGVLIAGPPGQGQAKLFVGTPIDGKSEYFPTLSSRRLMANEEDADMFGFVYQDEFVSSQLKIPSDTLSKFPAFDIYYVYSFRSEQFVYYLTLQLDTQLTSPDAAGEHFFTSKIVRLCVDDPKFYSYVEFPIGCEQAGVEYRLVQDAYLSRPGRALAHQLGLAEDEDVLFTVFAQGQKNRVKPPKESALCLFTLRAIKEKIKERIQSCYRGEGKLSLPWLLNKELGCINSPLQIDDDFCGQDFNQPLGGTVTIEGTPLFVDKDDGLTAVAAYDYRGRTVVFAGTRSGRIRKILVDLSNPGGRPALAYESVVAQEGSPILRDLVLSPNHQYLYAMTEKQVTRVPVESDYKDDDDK
Test: SPR, Biacore T200; antibody held by Protein A/G on CM4 chip, sema domain as analyte
Label criterion met when Kd is strictly below 40 nM; at or above that, label criterion not met.

**Q:** Determine whether this binder shows Kd lower than 40 nM (ties excluded): PLR2H359#062 (antibody, human IgG1, lambda, V domains shown, IgG from the 359H-NL library) VH: QVQLVQSGAEVKKPGASVKVSCKASGYTFTSYYMHWVRQAPGQGLEWMGIINPSGGSTSYAQKFQGRVTMTRDTSTSTVYMELSSLRSEDTAVYYCARAPGHYYYGMDVWGQGTTVTVSS VL: SYELTQPPSLSVSPGQTASITCSGDKLGEKYACWYQQKPGQSPALVIYQDTKRPSGIPERFSGSNSGNTATLTISGTQAMDEADYSCQAWDTNTGEVVFGGGTKLTVLG
**A:** criterion met

**Q:** # strict comparison: is reported Kd < 40 nM? input = PLR2H264#002 (antibody, human IgG1, lambda, V domains shown, IgG from the 264H-NL library) VH: QVQLQQSGPGLVKPSQTLSLTCAISGDSVSSNSAAWNWIRQSPSRGLEWLGRTYYRSKWYNDYAVSVKSRITINPDTSKNQFSLQLNSVTPEDTAVYYCARDRGYSYGFDYWGQGTLVTVSS VL: SYELTQPPSVSVSPGQTASITCSGDKLGNKYVSWYQRRPGQSPVLVIYQDSKRPSGIPERFSGSNSGNTATLTISGTQSMDEADYYCQAWYSSSVGVFGGGTRLTVLG
**A:** criterion not met

**Q:** Is Kd of hPANLB2-3_342 (antibody, human IgG1, lambda, V domains shown, Parent anti-plexin A1 antibody, IgG) VH: EVQLVQSGAEVKKPGASVKVSCKASGYTFTSYGISWVRQAPGQGLEWMGWISAYNGNTNYAQKLQGRVTMTTDTSTSTAYMELRSLRSDDTAVYYCARHAGYYYGMDVWGKGTMVTVSS VL: SYELTQPPSVSVSPGQTASITCSGDKLGEKYASWYQQKPGQSPVLVIYQDSKRPSGIPERFSGSNSGNMATLTISGTQAVDEADYYCQTWDSNTAFVFGTGTKVTVLG strictly below 40 nM?
**A:** criterion met

**Q:** Strictly below 40 nM in Kd? PLR2H359#087 (antibody, human IgG1, lambda, V domains shown, IgG from the 359H-NL library) VH: QVQLVQSGAEVKKPGASVKVSCKASGYTFTSYYMHWVRQAPGQGLEWMGIINPSGGSTSYAQKFQGRVTMTRDTSTSTVYMELSSLRSEDTAVYYCARAPGHYYYGMDVWGQGTTVTVSS VL: SSELTQPPSMSVSPGQTASISCSGDRLGEKYASWYQQKPGQSPVLVIYQDNKRPSGIPERFSGSNSGNTATLTISGTQAIDEADYYCQAWDSNSAYVFGTGTKVTVLG
**A:** criterion met
